B1: Hairpin Ribozyme (parent)
chain: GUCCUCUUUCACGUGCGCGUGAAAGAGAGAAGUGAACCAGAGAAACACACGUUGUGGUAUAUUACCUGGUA

- Variants of: B1
- ASSAY DETAILS: self-cleavage, relative activity (ratio to wild type); higher = more cleavage; co-transcriptional
METRIC: self-cleavage
Note: the reply should be a number with no unit written.

Note to self: self-cleavage recorded for A30G G57C was 0.0397

Note to self: self-cleavage recorded for A11C C37G was 0.435

Note to self: self-cleavage recorded for G54U U63A was 0.267

Note to self: self-cleavage recorded for U2C was 0.171

Note to self: self-cleavage recorded for A43G A45C was 0.142

Note to self: self-cleavage recorded for A44C U60C was 0.0498

Note to self: self-cleavage recorded for U5C A11U was 0.55

Note to self: self-cleavage recorded for C12U A59U was 0.182

Note to self: self-cleavage recorded for G1A A22C was 0.11

Note to self: self-cleavage recorded for C46U C50A was 0.0957

Note to self: self-cleavage recorded for A23G U60G was 0.516

Note to self: self-cleavage recorded for C12U G42A was 0.149

Note to self: self-cleavage recorded for A64G A71C was 0.76

Note to self: self-cleavage recorded for G40U U63C was 0.092

Note to self: self-cleavage recorded for C16U G69A was 0.301

Note to self: self-cleavage recorded for U7G G42A was 0.218

Note to self: self-cleavage recorded for C3G G21C was 0.154

Note to self: self-cleavage recorded for C16A U60G was 0.451

Note to self: self-cleavage recorded for A41C U62A was 0.325

Note to self: self-cleavage recorded for A23C A71U was 0.832

Note to self: self-cleavage recorded for C10U U20C was 0.722

Note to self: self-cleavage recorded for C6G U70C was 0.497

Note to self: self-cleavage recorded for G17U A43G was 0.0761

Note to self: self-cleavage recorded for U62C U70A was 0.194

Note to self: self-cleavage recorded for A30U A35G was 0.217

Note to self: self-cleavage recorded for G1A A39G was 0.152

Note to self: self-cleavage recorded for C66G U67G was 0.211

Note to self: self-cleavage recorded for G17C G42A was 0.176

Note to self: self-cleavage recorded for A28C A41G was 0.352

Note to self: self-cleavage recorded for C6A G29C was 0.123

FYI, the data here is from the RNAGym collection of RNA variant scans (doi:10.7554/elife.80360).
